tested.system: Retinaldehyde dehydrogenase 3 (Homo sapiens) (UniProt P47895)
assay: qHTS for Inhibitors of the Aldehyde Dehydrogenase Family (ALDH1A3) Validation screen (AID 2061312); also: nearly all actives have a fitted effect of over 45% in size
measurement.conditions: ALDH1A3 enzyme inhibition qHTS validation, fluorescence; series mostly up to 84.7 µM
Records with an inconclusive call do not appear. The source made the active and inactive calls. Calls follow the shape of the dose curve; as a rule, active = well fitted inhibition curve with a large enough effect; inconclusive = small, poorly fitted or top-dose-only effect; inactive = no such curve, though single readings can be large or run the other way.
quantity.measured: outcome

// solved cases for outcome follow
compound="CN(C)C(CCOc1cccc2ccccc12)c1ccccc1 (stereo not given)" value_observed=inactive
compound="O=C(Nc1ncc(SCCN2CCCC2)s1)C1(c2ccc(S(=O)(=O)C3CC3)cc2)CC1C1CCCCC1 (stereo not given)" value_observed=inactive
compound="COCCOC(=O)C1=C(C)NC2=C(C(=O)CC(c3ccccc3OC)C2)C1c1cccc(O)c1 (stereo not given)" value_observed=inactive
compound=C[C@@H](NC(=O)C(=O)c1c[nH]c2ccc([N+](=O)[O-])cc12)c1ccccc1 value_observed=inactive
compound=N#Cc1ccc(COC[C@H]2O[C@@H](n3c(NCc4ccc(Cl)c(Cl)c4)nc4c(N)ncnc43)[C@H](O)[C@@H]2O)cc1 value_observed=inactive
compound=O=C(NC1(c2ccccc2)CC1)c1c(CN2CCC(N3CCCCC3)CC2)c(-c2cccc(C(F)(F)F)c2)nc2cc(Br)ccc12 value_observed=inactive

Query string: What measured outcome goes with C[C@H]1O[C@@H](O[C@H]2[C@@H](O)C[C@H](O[C@H]3[C@@H](O)C[C@H](O[C@H]4CC[C@@]5(C)[C@H](CC[C@@H]6[C@@H]5C[C@@H](O)[C@]5(C)[C@@H](C7=CC(=O)OC7)CC[C@]65O)C4)O[C@@H]3C)O[C@@H]2C)C[C@H](O)[C@@H]1O ?
Result string: inactive

Query string: Would you mind telling me what outcome value was observed for O=C(NCc1nc2ccccc2c(=O)n1-c1ccc(F)cc1)Nc1ccc(Cl)c(C(F)(F)F)c1 ?
Result string: inactive

Query string: Name the reported outcome value associated with the compound CC(C)n1cnc2c(Nc3cccc(Cl)c3)nc(NCCO)nc21
Result string: inactive

Query string: Can you share its outcome? I mean this compound: CC(=O)OCC(=O)[C@@]1(O)[C@H](C)C[C@H]2[C@@H]3CCC4=CC(=O)C=C[C@]4(C)[C@@]3(F)[C@@H](O)C[C@@]21C
Result string: inactive
